tested on: acute T-cell leukemia (JURKAT); experiment: Anti-proliferative activity on JURKAT cell line; assay type: cell-based; conditions: Homo sapiens, 72 h, CellTiterGlo
Assay Readout: pIC50
Lab note — pIC50 values are minus log10 of concentrations in M.

[
  {
    "Cpd Smiles": "COCCCCN1CCC2(CC1)CC(=O)c1cc(-c3ccc(C(=O)NCc4cncc(F)c4)cn3)ccc1O2",
    "pIC50": 7.92
  }
]

Ask: Data request, read-out pIC50, for CCCCN1CCC2(CC1)CC(=O)c1cc(-c3ccc(C(=O)NCc4cncs4)cn3)ccc1O2
Result: 8.05

Ask: Can you handle Cc1cc(CNC(=O)c2ccc(-c3ccc4c(c3)C(=O)CC3(CCN(C(C)C)CC3)O4)cc2)no1 next?
Result: 7.97

Ask: Also CCCN1CCC2(CC1)CC(=O)c1cc(-c3ccc(C(=O)NCc4cncs4)cn3)ccc1O2 ?
Result: 7.79

Ask: Note, next up: COCCCN1CCC2(CC1)CC(=O)c1cc(-c3ccc(C(=O)NCc4cncs4)cn3)ccc1O2
Result: 7.71

====

test system: chronic myelogenous leukemia (K562); test: Anti-proliferative activity on K562 cell line; format: cell-based; settings: Homo sapiens, K562, 72 h, CellTiterGlo
# label = y if IC50 < 60 nM else n

Observe how each entry below is paired with its result.
[
  {
    "Cpd Smiles": "Cc1cc(CNC(=O)c2ccc(-c3ccc4c(c3)C(=O)CC3(CCN(C(C)C)CC3)O4)cc2)no1",
    "Category": "n"
  },
  {
    "Cpd Smiles": "CCCN1CCC2(CC1)CC(=O)c1cc(-c3ccc(C(=O)NCc4cc(C)no4)cc3)ccc1O2",
    "Category": "y"
  },
  {
    "Cpd Smiles": "CCCN1CCC2(CC1)CC(=O)c1cc(-c3ccc(C(=O)NCc4cc(C)no4)cn3)ccc1O2",
    "Category": "y"
  },
  {
    "Cpd Smiles": "CC(C)N1CCC2(CC1)CC(=O)c1cc(-c3ccc(C(=O)NCc4cccnc4F)cc3)ccc1O2",
    "Category": "y"
  }
]

Ask: I wonder whether CCCCONC(=O)c1ccc(-c2ccc3c(c2)C(=O)CC2(CCN(C(C)C)CC2)O3)nc1 has IC50 below 60 nM. Can you tell?
Result: n

Ask: What about this compound? Cc1cc(CNC(=O)c2ccc(-c3ccc4c(c3)C(=O)NC3(CCN(C(C)C)CC3)O4)nc2)on1
Result: n

Ask: // query: CC(C)N1CCC2(CC1)Oc1ccc(-c3ccc(C(=O)CCc4cncs4)cc3)cc1C(=O)N2C
Result: n

Ask: Also check CCCCN1CCC2(CC1)CC(=O)c1cc(-c3ccc(C(=O)NCc4cncs4)cn3)ccc1O2
Result: y

====

target: Recombinant NAMPT enzyme (Homo sapiens, UniProt P43490); experiment: Inhibition of NAMPT enzymatic activity; settings: 6 hours at 37° C., NMN product detected
Sequence (P43490 whole entry): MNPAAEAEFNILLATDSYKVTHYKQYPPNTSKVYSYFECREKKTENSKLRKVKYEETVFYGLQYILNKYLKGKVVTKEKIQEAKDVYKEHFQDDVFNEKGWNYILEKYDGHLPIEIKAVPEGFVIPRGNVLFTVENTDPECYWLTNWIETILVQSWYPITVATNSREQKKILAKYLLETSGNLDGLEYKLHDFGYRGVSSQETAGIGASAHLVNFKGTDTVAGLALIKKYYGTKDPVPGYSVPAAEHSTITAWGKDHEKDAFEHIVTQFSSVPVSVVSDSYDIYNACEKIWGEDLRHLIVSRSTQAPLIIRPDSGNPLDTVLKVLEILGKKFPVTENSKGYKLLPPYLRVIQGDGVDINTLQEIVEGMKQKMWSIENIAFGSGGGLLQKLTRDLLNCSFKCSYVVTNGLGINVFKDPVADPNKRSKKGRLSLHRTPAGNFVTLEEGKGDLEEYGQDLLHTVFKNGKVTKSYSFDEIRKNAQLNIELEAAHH
In this section, each of the compounds is paired with its reported IC50.
Hi! Could you send only the number? It should be in nM, unit omitted.

See these solved cases before continuing.
[
  {
    "Cpd Smiles": "Cc1ccc(CNC(=O)c2ccc(-c3ccc4c(c3)C(=O)CC3(CCN(C(C)C)CC3)O4)c(F)c2)cn1",
    "IC50 [nM]": 2
  },
  {
    "Cpd Smiles": "CCCCN1CCC2(CC1)CC(=O)c1cc(-c3ccc(C(=O)NCc4cncs4)cn3)ccc1O2",
    "IC50 [nM]": 29.9
  }
]

Ask: Form field: IC50 recorded for CCCN1CCC2(C=Cc3cc(-c4ccc(C(=O)NCc5cc(C)no5)cn4)ccc3O2)CC1 with Recombinant NAMPT enzyme (Homo sapiens, UniProt P43490) (enter value)
Result: 1

Ask: Next entry: Cc1cc(CNC(=O)c2ccc(-c3ccc4c(c3)C(=O)CC3(CCN(C(C)C)CC3)O4)cc2)on1
Result: 0.9

Ask: Now the compound CC(C)N1CCC2(CC1)Oc1ccc(-c3ccc(C(=O)CCc4cncs4)cc3)cc1C(=O)N2C
Result: 166

Ask: Item: CC(C)N1CCC2(CC1)CC(=O)c1cc(-c3ccc(C(=O)NCc4cccnc4F)cc3)ccc1O2
Result: 1

====

Overview of reported pIC50 across a group of compounds:
system: B-cell acute lymphocytic leukemia (SUP-B15); experiment: Anti-proliferative activity on SUP-B15 cell line; format: cell-based; settings: Homo sapiens, SUP-B15, 72 h, CellTiterGlo
Bear in mind: pIC50 is minus log10 of a mol/L concentration; give just that figure.

[
  {
    "Cpd Smiles": "CCCN1CCC2(CC1)CC(=O)c1cc(-c3ccc(C(=O)NCc4cc(C)no4)cn3)ccc1O2",
    "Target Or Test System": "B-cell acute lymphocytic leukemia (SUP-B15)",
    "Number": 9.15
  },
  {
    "Cpd Smiles": "COCCCCN1CCC2(CC1)CC(=O)c1cc(-c3ccc(C(=O)NCc4cncc(F)c4)cn3)ccc1O2",
    "Target Or Test System": "B-cell acute lymphocytic leukemia (SUP-B15)",
    "Number": 9.07
  },
  {
    "Cpd Smiles": "CCCN1CCC2(CC1)CC(=O)c1cc(-c3ccc(C(=O)NCc4cncs4)cn3)ccc1O2",
    "Target Or Test System": "B-cell acute lymphocytic leukemia (SUP-B15)",
    "Number": 8.72
  }
]

Ask: Value wanted: pIC50 (B-cell acute lymphocytic leukemia (SUP-B15)) of entry Cc1ccc(CNC(=O)c2ccc(-c3ccc4c(c3)C(=O)CC3(CCN(C(C)C)CC3)O4)c(F)c2)cn1
Result: 8.65

Ask: Another compound to look at: CCc1cc(CNC(=O)c2ccc(-c3ccc4c(c3)C(=O)CC3(CCN(C(C)C)CC3)O4)cc2)on1
Result: 8.64

Ask: Could you do the same for Cc1cc(CNC(=O)c2ccc(-c3ccc4c(c3)C(=O)CC3(CCN(C(C)C)CC3)O4)cc2)on1 , please?
Result: 8.61

====

system: acute T-cell leukemia (JURKAT); assay: Anti-proliferative activity on JURKAT cell line; type: cell-based; settings: Homo sapiens, 72 h, CellTiterGlo
Known IC50 of a selection of compounds
Kindly answer with a numeric value in nM, unit omitted.

Below, each entry is followed by its recorded IC50 result.
[
  {
    "Cpd Smiles": "CC(C)N1CCC2(CC1)Oc1ccc(-c3ccc(C(=O)NCc4cnn(C)c4)cn3)cc1C(=O)N2C",
    "Target Or Test System": "acute T-cell leukemia (JURKAT)",
    "IC50, nM": 181
  },
  {
    "Cpd Smiles": "CCCN1CCC2(C=Cc3cc(-c4ccc(C(=O)NCc5cc(C)no5)cn4)ccc3O2)CC1",
    "Target Or Test System": "acute T-cell leukemia (JURKAT)",
    "IC50, nM": 6.38
  },
  {
    "Cpd Smiles": "CC(C)N1CCC2(CC1)Oc1ccc(-c3ccc(C(=O)NCc4cncs4)cn3)cc1C(=O)N2C",
    "Target Or Test System": "acute T-cell leukemia (JURKAT)",
    "IC50, nM": 33
  }
]

Ask: Field request: IC50 | item: Cc1cc(CNC(=O)c2ccc(-c3ccc4c(c3)C(=O)CC3(CCN(C(C)C)CC3)O4)cc2)on1
Result: 17.9
